Assignment: determine reported MIC for the given molecules.
System: Pseudomonas aeruginosa
Test description: Antibacterial activity against efflux pump deficient Pseudomonas aeruginosa PAO750 assessed as inhibition of bacterial growth measured after 16 to 20 hrs
Assay type: functional
Run parameters: time 16-20 hrs

Some molecules with recorded MIC:
Molecule	System name	MIC
CCCCCCc1ccc(-c2ccc(S(=O)(=NCCN)N3CCC[C@H]3C(=O)N[C@H](C(=O)N[C@@H](C)C(=O)NC(CC(N)=O)C(=O)N[C@@H](C)B3O[C@@H]4C[C@H]5C[C@H](C5(C)C)[C@]4(C)O3)[C@@H](C)O)cc2)cc1 (stereo not given in full)	Pseudomonas aeruginosa	> 64 µg/mL
CCCCCCc1ccc(-c2ccc(S(=O)(=O)N3CCC[C@H]3C(=O)N[C@H](C(=O)N[C@@H](C)C(=O)NC(CC(N)=O)C(=O)N[C@@H](C)B3O[C@@H]4C[C@H]5C[C@H](C5(C)C)[C@]4(C)O3)[C@@H](C)O)cc2)cc1 (mixture of isomers)	Pseudomonas aeruginosa	> 64 µg/mL
CCCCCCc1ccc(-c2ccc([S@@](=N)(=O)N3CCC[C@H]3C(=O)N[C@H](C(=O)N[C@@H](C)C(=O)NC(CC(N)=O)C(=O)N[C@@H](C)B3O[C@@H]4C[C@H]5C[C@H](C5(C)C)[C@]4(C)O3)[C@@H](C)O)cc2)cc1 (mixture of isomers)	Pseudomonas aeruginosa	> 64 µg/mL
CCCCCCCCCCCCS(=O)(=O)N1CCC[C@H]1C(=O)N[C@H](C(=O)N[C@@H](C)C(=O)NC(CC(N)=O)C(=O)N[C@@H](C)B1O[C@@H]2C[C@H]3C[C@H](C3(C)C)[C@]2(C)O1)[C@@H](C)O (mixture of isomers)	Pseudomonas aeruginosa	32 µg/mL

The molecule listed as CCCCCCc1ccc(-c2ccc([S@](=N)(=O)N3CCC[C@H]3C(=O)N[C@H](C(=O)N[C@@H](C)C(=O)NC(CC(N)=O)C(=O)N[C@@H](C)B3O[C@@H]4C[C@H]5C[C@H](C5(C)C)[C@]4(C)O3)[C@@H](C)O)cc2)cc1 (mixture of isomers) shows MIC equal to > 64 µg/mL
